Origin of the recorded values: ChEMBL document CHEMBL1145880

molecular target: Melanocortin receptor 4 (Homo sapiens, UniProt P32245); assay: cAMP accumulation in HEK cells transfected with human melanocortin 4 receptor (hMC4R) with respect to alpha-MSH; format: functional, cell-based; settings: HEK293
Sequence (P32245 whole entry): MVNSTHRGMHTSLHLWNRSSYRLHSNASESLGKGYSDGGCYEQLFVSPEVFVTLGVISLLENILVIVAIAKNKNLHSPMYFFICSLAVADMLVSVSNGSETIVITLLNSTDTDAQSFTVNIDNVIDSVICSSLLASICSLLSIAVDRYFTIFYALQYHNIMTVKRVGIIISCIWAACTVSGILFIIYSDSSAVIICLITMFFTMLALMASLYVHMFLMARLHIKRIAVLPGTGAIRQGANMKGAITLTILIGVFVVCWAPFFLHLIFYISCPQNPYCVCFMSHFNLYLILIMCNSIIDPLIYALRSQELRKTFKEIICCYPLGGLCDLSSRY
// label = TRUE if Stimulation is not less than 60%, otherwise FALSE

Take a look at these entries with their results.
## Task Would you say CS(=O)(=O)Nc1ccccc1N1CCN(C(=O)[C@@H](Cc2ccc(Cl)cc2)NC(=O)[C@H]2Cc3ccccc3CN2)CC1 shows Stimulation at minimum 60%?
## Result TRUE

## Task Would you say CCC(CC)N(Cc1ccccc1N1CCN(C(=O)[C@@H](Cc2ccc(Cl)cc2)NC(=O)[C@H]2Cc3ccccc3CN2)CC1)S(C)(=O)=O shows Stimulation at minimum 60%?
## Result TRUE

## Task Would you say CC(=O)Nc1ccccc1N1CCN(C(=O)[C@@H](Cc2ccc(Cl)cc2)NC(=O)[C@H]2Cc3ccccc3CN2)CC1 shows Stimulation at minimum 60%?
## Result TRUE

More entries:
## Task Would you say COCC(=O)Nc1ccccc1N1CCN(C(=O)[C@@H](Cc2ccc(Cl)cc2)NC(=O)[C@H]2Cc3ccccc3CN2)CC1 shows Stimulation at minimum 60%?
## Result FALSE

## Task Would you say O=C(NCc1ccccc1)Nc1ccccc1N1CCN(C(=O)[C@@H](Cc2ccc(Cl)cc2)NC(=O)[C@H]2Cc3ccccc3CN2)CC1 shows Stimulation at minimum 60%?
## Result TRUE

## Task Would you say O=C(N[C@H](Cc1ccc(Cl)cc1)C(=O)N1CCN(c2c(Cn3cncn3)ccc3ccccc23)CC1)[C@H]1Cc2ccccc2CN1 shows Stimulation at minimum 60%?
## Result TRUE

## Task Would you say CCOC(=O)NC(=O)Nc1ccccc1N1CCN(C(=O)[C@@H](Cc2ccc(Cl)cc2)NC(=O)[C@H]2Cc3ccccc3CN2)CC1 shows Stimulation at minimum 60%?
## Result FALSE
